What inhibition was measured for each of the following?
ASSAY COMMENT: HepG2 cytotoxicity, primary screen, cytotoxicity control for P. falciparum antimalarial project, cell-based, ATP luminescence (AID 2303);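 note: 0% = DMSO wells and 100% = digitonin-killed cells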
MEASUREMENT SETUP: HepG2 viability, 24-48 h, at 10 µM, stronger effect = higher value
Numbers only; they are read as %.

Record summary for COC(=O)c1cc(OC)c(OC)cc1NC(=O)NC12CC3CC(CC(C3)C1)C2 : reported inhibition = 6

Input C=CCn1c(Sc2ccc(C#N)c([N+](=O)[O-])c2)nnc1-c1ccc(OC)cc1 . Output inhibition: -5

Per the record, C[C@H](NC(=O)[C@H](CCCCNC(=O)OC(C)(C)C)NC(=O)OC(C)(C)c1ccc(-c2ccccc2)cc1)C(=O)OCc1ccccc1 has inhibition of 4

// inhibition lookup, compound = O=C(C=Cc1ccc(Cl)c(Cl)c1)NCCCCCN1CCC(CCCNS(=O)(=O)c2ccc(Br)cc2)CC1 , result: 74

Note to self: inhibition recorded for Cc1cc(N2CCN(C)CC2)nc2ccc(NC(=O)Cc3cccc(C(F)(F)F)c3)cc12 was 26

Value of inhibition reported for the compound O=C(/C=C/c1ccc(Cl)c(Cl)c1)NCCCCCN1CCC(NC(=O)Nc2ccc(C(F)(F)F)cc2)C1 (stereo not drawn) is 11

The compound COc1ccc(OC)c(Cc2cnc3nc(N)nc(N)c3c2C)c1 showed inhibition equal to 68

Notebook: COc1ccc(CCN(Cc2cccs2)C(=O)c2cc3sccc3n2C)cc1OC , inhibition read as 0

# inhibition of Fc1c(CNCC2CCN(CC3CCCCC3)CC2)cccc1C(F)(F)F = 35

For this compound ( CCNc1cc(C(=O)N[C@@H](Cc2ccccc2)[C@H](O)CN[C@@H]2CCc3ccccc32)cc(N2CCCC2=O)c1 ), measured inhibition is -5

Lab book: inhibition of O=C(Nc1ccc(Oc2cccnc2)cc1)C1CCN(Cc2cc(Cl)ccc2O)CC1 noted as 37

Record CCCCc1cc(NCc2ccncc2)nc(Nc2cccc(OC)c2)n1 , field inhibition: 41

According to the records, this compound CN1CCC(C(=O)Nc2ccc(-c3ccc(-c4nc5ccccc5[nH]4)cc3)cc2)CC1 displays inhibition of 28

The value of inhibition measured for the compound COc1nc2c(CCN3CC[C@@H](NCc4cc(C#N)c5c(c4)CCO5)[C@@H](O)C3)ccnc2cc1F turned out to be 21

// inhibition lookup, compound = Clc1cccc(-c2nc(Nc3ccnc(-c4ccc(CN5CCOCC5)cc4)c3)c3ccccc3n2)c1 , result: 8

Consider CC(=O)N1N=C(c2cccs2)Sc2c1nc(-c1ccc(Cl)cc1)n2C(C)=O . Its measured inhibition is 3

// inhibition lookup, compound = CC1(C)N=C(N)N=C(N)N1OCCCOc1cc(Cl)c(Cl)cc1Cl , result: 60

Record Cc1ccc(NC(=O)c2ccc3ncccc3c2)cc1OC1CCN(Cc2ccsc2)CC1 . Reported inhibition: 21

Documented inhibition of CC1(C)N=C(N)N=C(N)N1OCCCNC(=O)c1ccc([N+](=O)[O-])cc1 : 57

Looking up COc1ccc2nccc([C@@H](O)CN3CCC(NCCOc4ccccc4C(F)(F)F)CC3)c2c1 , I see its inhibition listed as 2

Looking up CN1CCN(c2cccc(-c3nnc(-c4ccc(OCC(=O)NCc5ccc(C(F)(F)F)cc5)c([N+](=O)[O-])c4)o3)c2)CC1 , I found its inhibition recorded as 35

Query COc1ccc(CCN2CCC(Nc3nc4ccccc4n3CCc3ccc(OC)cc3)CC2)cc1 yields inhibition of 34

inhibition for CNCCNCc1cccc(-c2cccc(-c3nc4ccc(F)cc4[nH]3)c2)c1 is 20

Query C[C@@H]1CN(c2cnn(Cc3ccc(NC(=O)Nc4cccc(C(F)(F)F)c4)cc3)c(=O)c2Cl)C[C@H](C)N1 yields inhibition of -10

Query CS(=O)(=O)c1ccc(CNCc2cccc(-c3cccc(-c4nc5ccc(C(F)(F)F)cc5[nH]4)c3)c2)cc1 yields inhibition of 5

// recorded inhibition for C[C@H]1CN(Cc2cccc(-c3cc(CNC(=O)c4cccc(C(=O)c5ccc(Cl)c(Cl)c5)c4)ccc3F)c2)CCN1 : 40

The reported inhibition of the compound Cc1cc(C(=O)Nc2ccc3c(c2)CCN3C2CCN(Cc3cccc4cc[nH]c34)C2)no1 (stereo not drawn) was -1

Reported inhibition of CCOc1cc(C(=O)NCCc2ccc(Cl)c(Cl)c2)ccc1-c1nc2ccc(Cl)cc2[nH]1 : 9

COc1cccc(Nc2c(C(N)=O)cnc3ccc(-c4ccc(S(C)=O)cc4)cc23)c1 (stereo not drawn) has a reported inhibition of -3

inhibition recorded for this compound, CCOc1cc(Br)c(C(C)NC(=O)c2cccc(OC)c2)cc1OCC (stereo not drawn) , is -1

Kindly note the recorded inhibition for CC1CCN(C(=O)[C@H](Cc2c[nH]c3ccccc23)NS(=O)(=O)c2ccc(Cl)cc2)CC1 , which is -6

Measured inhibition of CC(=O)Nc1ccc(C2NC(=O)NC(c3ccccc3)=C2c2nc3ccccc3s2)cc1 (stereo not drawn) : -3

For this compound ( Cc1ccc(Nc2ccnc3ccc(C(F)(F)F)cc23)cc1O ), measured inhibition is 23

inhibition measured on COc1ccc(CNC2CCN(C)CC2)cc1-c1ccc(S(=O)(=O)NC2CCC2)c(C)c1 = 24

Looking up Cc1cccc(C)c1C1CCN(C2CCC(NC(=O)/C=C/c3ccccc3)CC2)CC1 (stereo not drawn) , I found its inhibition recorded as 42

Record summary for c1csc(-c2nc(N3CCCCC3)ncc2-c2ccsc2)n1 : reported inhibition = -5

Value of inhibition reported for the compound FC(F)(F)c1cccc(CNCC2CCN(CC3CCCCC3)CC2)c1 is 21

inhibition for O=C(NCCNc1noc(-c2sccc2Br)n1)c1ccc(Cl)cc1 is -5
